# Tested on: UniProtKB Q62148
# Sequence (Q62148 whole entry): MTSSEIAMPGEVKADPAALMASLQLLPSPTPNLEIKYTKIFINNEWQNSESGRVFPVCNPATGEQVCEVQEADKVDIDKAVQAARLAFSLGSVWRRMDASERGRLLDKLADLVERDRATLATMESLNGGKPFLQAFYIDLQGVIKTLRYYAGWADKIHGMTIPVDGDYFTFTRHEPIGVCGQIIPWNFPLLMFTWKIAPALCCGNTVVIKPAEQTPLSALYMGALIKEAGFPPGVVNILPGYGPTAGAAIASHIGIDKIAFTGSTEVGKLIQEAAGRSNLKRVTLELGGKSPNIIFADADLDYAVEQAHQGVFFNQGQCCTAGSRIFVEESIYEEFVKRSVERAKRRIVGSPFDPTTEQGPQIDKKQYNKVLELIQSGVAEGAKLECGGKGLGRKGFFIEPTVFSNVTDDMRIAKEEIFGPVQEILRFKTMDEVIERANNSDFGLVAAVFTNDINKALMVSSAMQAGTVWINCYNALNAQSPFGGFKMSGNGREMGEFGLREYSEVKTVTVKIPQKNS
# Measurement protocol: Aldh1a2 enzyme inhibition assay (recombinant enzyme, resorufin fluorescence)
Parameter IC50: see the listing below.
Reply with just the number (in nM).

Lab book: IC50 of CCc1cnccc1C(=O)Nc1cc2c(c(C)c1F)NC(=O)CC2 [Compound 146] noted as 405

Lab book: IC50 of O=C1CCc2cc(NC(=O)c3ccncc3CC(F)(F)F)c(F)cc2N1 [Compound 82] noted as 941

Lab book: IC50 of CCc1cnccc1C(=O)Nc1cc2c(cc1F)NC(=O)CC2 [Compound 1] noted as 3330

Lab book: IC50 of CCc1cnccc1C(=O)Nc1cc(C#N)c2c(c1)CCC(=O)N2 [Compound 139] noted as 1480

Lab book: IC50 of CCc1cnccc1C(=O)Nc1cc(F)c2c(c1)CCC(=O)N2 [Compound 141] noted as 180

Lab book: IC50 of O=C1CCc2cc(NC(=O)c3ccncc3CC(F)(F)F)ccc2N1 [Compound 53] noted as 494

Lab book: IC50 of CCc1cnccc1C(=O)Nc1cc2c(c3ccncc13)NC(=O)CC2 [Compound 145] noted as 172

Lab book: IC50 of CCc1cnccc1C(=O)Nc1cc(C)c2c(c1)CCC(=O)N2 [Compound 140] noted as 96

Lab book: IC50 of Cc1cc(NC(=O)c2ccnc3c2CCO3)cc2c1NC(=O)CC2 [Compound 152] noted as 824

Lab book: IC50 of Cc1cc(NC(=O)c2ccncc2CC2CCC2)cc2c1NC(=O)CC2 [Compound 155] noted as 1290

Lab book: IC50 of CCc1cnccc1C(=O)Nc1cc(Cl)c2c(c1)CCC(=O)N2 [Compound 142] noted as 63
